tested on: Es-2; assay: Primary qHTS to identify gynecologic anti-cancer compounds using libraries of approved drugs and bioactive compounds (AID 1345084); conditions: Gynecologic cancer cell panel viability, ATPlite luminescence, 48 h; series mostly up to 57.5 µM; note: % is set by controls: 0 for no effect and ±100 for the full control effect; nearly all actives have a fitted effect of over 55% in size
Records with an inconclusive call do not appear. Activity calls are given as the source filed them. Calls come from the whole dose curve; as a rule, active = well fitted cell-killing curve with a large enough effect; inconclusive = small, poorly fitted or top-dose-only effect, or effect the other way; inactive = flat fitted curve, though single readings scatter.
result type: activity change, negative = cytotoxicity

compound	result type	recorded result
O=C(O)Cc1nn(Cc2nc3cc(C(F)(F)F)ccc3s2)c(=O)c2nccnc12	activity change, negative = cytotoxicity	inactive
CC1(C)CCC(C)(C)c2cc([C@@H](O)C(=O)Nc3ccc(C(=O)O)cc3F)ccc21	activity change, negative = cytotoxicity	inactive
CC1(C)CC2C3=CCC4C5(C)CCC(OC6OC(C(=O)O)C(O)C(O)C6OC6OC(CO)C(O)C(O)C6OC6OC(CO)C(O)C(O)C6O)C(C)(CO)C5CCC4(C)C3(C)CCC2(C)C(OC2OCC(O)C(OC3OC(CO)C(O)C(O)C3O)C2O)C1O (stereo not drawn)	activity change, negative = cytotoxicity	1.46% [at 6.55 µM] (inactive)
CC(C)=CCCC1(C)Oc2cc3c(c4c2C2C(O4)C(C)(O)CCC21)CN(C(CCC(=O)O)C(=O)O)C3=O (stereo not drawn)	activity change, negative = cytotoxicity	inactive
CC(=O)OC[C@]1(O)[C@H]2[C@H](OC(=O)CC(C)C)OC=C(CO[C@@H]3O[C@H](CO)[C@@H](O)[C@H](O)[C@H]3O)[C@H]2C[C@@H]1O	activity change, negative = cytotoxicity	inactive
C=C(C)[C@@H](C)[C@H]1O[C@]23C[C@]4(CO2)C(CCC2[C@@]5(C)CC[C@H](O[C@@H]6OC[C@H](O)[C@H](O[C@@H]7O[C@H](CO)[C@@H](O)[C@H](O)[C@H]7O)[C@H]6O[C@@H]6O[C@@H](CO)[C@H](O)[C@H]6O)C(C)(C)C5CC[C@]24C)C3[C@@](C)(O)[C@@H]1OC(C)=O (stereo partly drawn)	activity change, negative = cytotoxicity	4.13% [at 11.6 µM] (inactive)
CC1CCC2C(C(=O)O)=CC3CC(C)(C)CC132 (stereo not drawn)	activity change, negative = cytotoxicity	inactive
CN1C(=O)N[C@@H](Cc2c[nH]c3c(Cl)cccc23)C1=O	activity change, negative = cytotoxicity	inactive
